Measured half-life at 0.5 uM of individual entries
- PROCEDURE_SUMMARY: Human hepatocyte stability assay (Test 4)
- Type: in vitro ADME
- MEASUREMENT_CONDITIONS: cryopreserved hepatocytes, 0.5 uM test compound, 37°C, up to 240 minutes, 0.5 million cells/mL in William's Medium E, read-out: Test 4 T1/2

Consider the reported half-life at 0.5 uM for these molecules:
MOLECULE: CCCCCC(O)CCC1C(O)CC2Cc3c(cccc3OCC(=O)NCC3CC3)CC21 (centres unmarked)
RECORDED_METRIC: half-life at 0.5 uM
EXPERIMENTAL_VALUE: 31 to 60 min
--
MOLECULE: CCCCC[C@H](O)CC[C@@H]1[C@H]2Cc3cccc4c3C[C@H]2C[C@H]1OC(=O)CO4 [Compound 57, Treprostinil 2-hydroxy lactone]
RECORDED_METRIC: half-life at 0.5 uM
EXPERIMENTAL_VALUE: > 60 min
--
MOLECULE: CCCCCC(O)CCC1C(O)CC2Cc3c(cccc3OCC(=O)NCCO)CC21 (centres unmarked)
RECORDED_METRIC: half-life at 0.5 uM
EXPERIMENTAL_VALUE: 15 to 30 min
--
MOLECULE: CCCCCC(O)CCC1C(O)CC2Cc3c(cccc3OCC(=O)NCC(F)(F)F)CC21 (centres unmarked)
RECORDED_METRIC: half-life at 0.5 uM
EXPERIMENTAL_VALUE: < 15 min

Let us move to another entry and its half-life at 0.5 uM.
Give half-life at 0.5 uM for CCCCCC(O)CCC1C(O)CC2Cc3c(cccc3OCC(=O)N(C)CC(=O)OC)CC21 (centres unmarked)
< 15 min
